Target: T1, BSA-conjugated Aβ heptapeptide LVFFAEC (reading uncertain; also: BSA conjugate);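 also: ELISA of antibody at 10 or 2 µg/ml binding plate-coated BSA–peptide conjugates, detected with HRP anti-human Ig and TMB colour, mock-treated BSA without peptide as negative control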
T1 construct: also called Peptide 17-22
T1 peptide: LVFFAEC([NSMP-BSA])
Assay: ELISA
Groups on a side chain read outwards from the residue. No end group written: not given here. NSMP = not defined here
Would you mind telling me the reported Peptide-ratio 17-22/2-7 of each entry?
Answers are plain numbers.

Recorded results for 5 binders are shown here.
>  <Binder>
MS-Roche #7.9.H1 Fab (Fab, V domains shown, assembled) VH: QVQLVESGGGLVQPGGSLRLSCAASGFTFSSYAMSWVRQAPGKGLEWVSAINANGQRKFYADSVKGRFTISRDNSKNTLYLQMNSLRAEDTAVYYCARGKGNTHKPYGYVRYFDVWGQGTLVTVSS VL: DIVLTQSPATLSLSPGERATLSCRASQSVSSSYLAWYQQKPGQAPRLLIYGASSRATGVPARFSGSGSGTDFTLTISSLEPEDFATYYCLQIYNMPITFGQGTKVEIKR

>  <Peptide-ratio 17-22/2-7>
0.23

$$$$
>  <Binder>
MS-Roche #7.11.H1 Fab (Fab, V domains shown) VH: QVQLVESGGGLVQPGGSLRLSCAASGFTFSSYAMSWVRQAPGKGLEWVSGINAAGFRTYYADSVKGRFTISRDNSKNTLYLQMNSLRAEDTAVYYCARGKGNTHKPYGYVRYFDVWGQGTLVTVSS VL: DIVLTQSPATLSLSPGERATLSCRASQSVSSSYLAWYQQKPGQAPRLLIYGASSRATGVPARFSGSGSGTDFTLTISSLEPEDFATYYCQQVYSPPHTFGQGTKVEIKR

>  <Peptide-ratio 17-22/2-7>
0.25

$$$$
>  <Binder>
MS-Roche #7.9.H3 Fab (Fab, V domains shown, assembled) VH: QVQLVESGGGLVQPGGSLRLSCAASGFTFSSYAMSWVRQAPGKGLEWVSAINYQGNRKYYADSVKGRFTISRDNSKNTLYLQMNSLRAEDTAVYYCARGKGNTHKPYGYVRYFDVWGQGTLVTVSS VL: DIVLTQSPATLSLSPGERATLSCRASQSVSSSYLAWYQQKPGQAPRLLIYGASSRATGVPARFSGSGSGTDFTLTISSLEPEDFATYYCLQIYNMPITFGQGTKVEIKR

>  <Peptide-ratio 17-22/2-7>
0.31

$$$$
>  <Binder>
MS-Roche #7.2.H5 Fab (Fab, V domains shown) VH: QVQLVESGGGLVQPGGSLRLSCAASGFTFSSYAMSWVRQAPGKGLEWVSAINATGRSKYYADSVKGRFTISRDNSKNTLYLQMNSLRAEDTAVYYCARGKGNTHKPYGYVRYFDVWGQGTLVTVSS VL: DIVLTQSPATLSLSPGERATLSCRASQSVSSSYLAWYQQKPGQAPRLLIYGASSRATGVPARFSGSGSGTDFTLTISSLEPEDFATYYCQQIYSFPHTFGQGTKVEIKR

>  <Peptide-ratio 17-22/2-7>
0.43

$$$$
>  <Binder>
MS-Roche #7.2.H4 Fab (Fab, V domains shown) VH: QVQLVESGGGLVQPGGSLRLSCAASGFTFSSYAMSWVRQAPGKGLEWVSAINSKGSRIYYADSVKGRFTISRDNSKNTLYLQMNSLRAEDTAVYYCARGKGNTHKPYGYVRYFDVWGQGTLVTVSS VL: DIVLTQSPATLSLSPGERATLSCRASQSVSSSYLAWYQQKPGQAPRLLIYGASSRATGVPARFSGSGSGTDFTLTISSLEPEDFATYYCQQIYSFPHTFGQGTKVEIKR

>  <Peptide-ratio 17-22/2-7>
0.52

$$$$

// next item, Peptide-ratio 17-22/2-7 requested
Input MS-Roche #7.2.H1 Fab (Fab, V domains shown) VH: QVQLVESGGGLVQPGGSLRLSCAASGFTFSSYAMSWVRQAPGKGLEWVSAINANGLKKYYADSVKGRFTISRDNSKNTLYLQMNSLRAEDTAVYYCARGKGNTHKPYGYVRYFDVWGQGTLVTVSS VL: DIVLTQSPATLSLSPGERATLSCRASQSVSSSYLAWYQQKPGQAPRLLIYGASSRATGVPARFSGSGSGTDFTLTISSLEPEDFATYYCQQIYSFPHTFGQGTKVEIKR , output reported Peptide-ratio 17-22/2-7.
0.21

Data provenance is patent US20100172907A1.
